# System: HCT-116
# PROCEDURE_SUMMARY: Cytotoxicity against human HCT116 cells assessed as inhibition of cell proliferation after 72 hrs by MTT assay
# Type: functional, cell-based
# MEASUREMENT_SETUP: HCT-116, 72 h
Classification by IC50 follows these ranges: LOW (below 2 µM), MID (2 µM to below 6 µM), HIGH (6 µM or more)

Assign a category based on measured IC50 for O=C1c2c(O)ccc(O)c2C(=O)c2c(NCCNCCO)ccc(NCCNCCO)c21 [MITOXANTRONE] and give only the class name. LOW

Could you do the same for CN(C)CCn1cc2c([N+](=O)[O-])ccc3c2c1-c1ccccc1S3(=O)=O , please? MID

====

# System: HCT-116
# PROCEDURE_SUMMARY: Cytotoxicity against human HCT116 cells assessed as inhibition of cell proliferation after 72 hrs by MTT assay
# Type: functional, cell-based
# MEASUREMENT_SETUP: HCT-116, 72 h
Provide the recorded pIC50 for the entries that follow.
Give bare numbers, as −log10 of the molar value.

Previously resolved entries follow.
COMPOUND	pIC50
O=[N+]([O-])c1ccc2c3c(n(CCN4CCCCC4)cc13)-c1ccccc1S2	5.09
CCN(CC)CCn1cc2c([N+](=O)[O-])ccc3c2c1-c1ccccc1S3(=O)=O	5.22

Take each entry in turn and give its pIC50.
1. COc1cccc2c1C(=O)c1c(O)c3c(c(O)c1C2=O)C[C@@](O)(C(=O)CO)C[C@@H]3O[C@H]1C[C@H](N)[C@H](O)[C@H](C)O1
2. O=[N+]([O-])c1ccc2c3c(n(CCN4CCCC4)cc13)-c1ccccc1S2
3. CCN(CC)CCn1cc2c([N+](=O)[O-])ccc3c2c1-c1ccccc1S3
4. CCN(CC)CCNc1ccc2c3c(n(CCN(CC)CC)cc13)-c1ccccc1S2(=O)=O
5. O=[N+]([O-])c1ccc2c3c(n(CCN4CCCCC4)cc13)-c1ccccc1S2(=O)=O
6. CN(C)CCn1cc2c([N+](=O)[O-])ccc3c2c1-c1ccccc1S3
7. O=[N+]([O-])c1ccc2c3c(n(CCN4CCCC4)cc13)-c1ccccc1S2(=O)=O

1: 6.80; 2: 5.94; 3: 5.67; 4: 4.22; 5: 5.26; 6: 5.68; 7: 5.15
